Reported pIC50 values follow for various molecules
# STUDY SYSTEM: Oxidized purine nucleoside triphosphate hydrolase (Homo sapiens)
# PROCEDURE TEXT: Inhibition of human recombinant His-tagged MTH1 expressed in Escherichia coli BL21 using dGTP as substrate after 15 mins by malachite green reagent-based assay
Convention used: pIC50 is expressed as -log10 of the molar concentration.

- CSc1nc2c(N)ncnc2[nH]1: 4.62
- Cc1nc(N)nc2ccccc12: 5.25

# next molecule below
// query pIC50 value for entry `Nc1nc(SCCc2ccccc2)c2nc[nH]c2n1`
6.77
